- Test system: UACC-62 melanoma
- measurement-notes: NCI tumour cell line growth inhibition, 48 h
Kindly supply the reported TGI values for the records listed here.

compound	TGI
COC(=O)c1ccc(C2SC(C)C(=O)N2NC(=O)C(O)c2ccccc2)cc1 (stereo not drawn)	> 100 µM

Okay, here is my list. What is TGI for each of these?
1. COc1cc2c(cc1OCCCC(=O)Nc1cc(C(=O)Nc3cc(C(=O)Nc4cc(C(=O)NCCCN(C)C)n(C)n4)n(C)c3)n(C)c1)N=CC1CCCN1C2=O (stereo not drawn)
2. CCCC(=O)Nc1ccc(O)c2c1C1CCCCCC21 (stereo not drawn)
3. CCOC(=O)c1ccc(O)cc1
4. Cc1ccc(S(=O)(=O)C2=C([Si](C)(C)C)C3CC2[C@@H]2C4C=CC(CC4)[C@H]32)cc1 (stereo partly drawn)
5. C#CC#CC#CC#CC#CC#CC#CC#CC[C@@H]1OC[C@H](COC(=O)O[C@@H](C(=O)O[C@H]2C[C@@]3(O)[C@@H](OC(=O)c4ccccc4)[C@@H]4[C@]5(OC(C)=O)CO[C@@H]5C[C@H](O)[C@@]4(C)C(=O)[C@H](OC(C)=O)C(=C2C)C3(C)C)[C@@H](NC(=O)c2ccccc2)c2ccccc2)O1
6. CCOP(=O)(OCC)C(C)(CC)NC1=NC(C(F)(F)F)(C(F)(F)F)NC(=O)N1 (stereo not drawn)
7. CCOC(=O)C1=C(C)N2CCOC2(C)C(C(=O)OC)C1c1cccc(Cl)c1 (stereo not drawn)

Result string:
39.9 µM
> 100 µM
> 100 µM
> 100 µM
> 25 µM
> 100 µM
> 100 µM

###

- System: HT29 colon
- measurement-notes: NCI tumour cell line growth inhibition, 48 h
observed-property: TGI

# annotated cases, reported TGI shown
molecule	test-value
O=Cc1cn(Cc2ccccc2)c2ccccc12	> 100 µM
CC(=O)/C(=C\c1c(-c2ccccc2)[nH]c2ccccc12)S(C)(=O)=O	> 40.1 µM
O=S(=O)(Nc1nc2ccccc2n1S(=O)(=O)c1ccccc1)c1ccccc1	> 100 µM

Each molecule below has a recorded value; state its TGI.
1. CCOP(=O)(OCC)C(C)(C)OC(=O)NC(F)(F)F
2. O=C1c2ccccc2CC12CCC1(CC2)OCCO1
3. CN(C)c1nc2n(CCO)ccnc-2c(=O)n1
4. C/C(=N\Nc1nc2ccccc2o1)c1ccc2ccccc2n1
5. CCCCCCCCCCCCCCCC(=O)Nc1ccn(C2CC(OP(=O)(O)OCC3OC(n4cc(F)c(=O)[nH]c4=O)CC3OC(C)=O)C(CO)O2)c(=O)n1 (stereo unspecified)

Result string:
1. > 100 µM
2. > 100 µM
3. > 100 µM
4. 95.9 µM
5. 52.8 µM

###

Record form. Attribute: TGI. Fill in for each entry.
- Tested on: HCC-2998 colon
- measurement-notes: NCI tumour cell line growth inhibition, 48 h

Illustrative cases are given below, each with its answer.
compound	TGI
CC1(CO)OC(n2cnc3c(N)ncnc32)C(O)C1O (stereo unspecified)	> 100 µM
CCCCC1(C2c3ccccc3Oc3ccccc32)C(=O)N(c2ccccc2)N(c2ccccc2)C1=O	> 94.5 µM
CC(C)NCCCNc1c2ccccc2nc2cccc([N+](=O)[O-])c12	0.0165 µM
Nc1nc2c3c(ncn3CC(O)CO2)n1 (stereo unspecified)	> 100 µM
O=c1cc(/C=C/c2ccc(O)c(O)c2)cc(/C=C/c2ccc(O)c(O)c2)o1	19.3 µM

Note: attention shifts to another entry.
Query string: Which value of TGI has been reported for CC(C)(C)OC(=O)N(CCCN)CCCCN in the records?
Result string: > 100 µM

###

- Test system: UO-31 renal
- measurement-notes: NCI tumour cell line growth inhibition, 48 h
observed-property: TGI

Recorded TGI, per entry:
compound	TGI
CCCCCCCC/C=C/CCCCCCCC(=O)N(O)C1CC(n2cc(C)c(=O)[nH]c2=O)OC1CO (stereo not given)	14.4 µM
O=C1c2ccccc2C(=O)c2nc3c(O)cccc3cc21	> 100 µM
CCOC(=O)C(/C(=N/NC(=O)OC)C(=O)Nc1ccc(C(C)=O)cc1)c1cnc2ccccc2n1 (stereo not given)	> 100 µM
COC(=O)C1(CCC(=O)N(C)c2ccccc2)NNC2C(=O)N(c3ccccc3)C(=O)C21 (stereo not given)	> 10 µM

Alright, here's another compound for you.
Query string: Dear colleague, I am looking for the recorded TGI of the following compound: CCOP(=O)(OCC)C(C)(C)OC(=O)NC(F)(F)F
Result string: > 100 µM

###

- Tested on: SNB-75 CNS
- measurement-notes: NCI tumour cell line growth inhibition, 48 h; in the data active = GI50 below about 0.43 µM; inactive = the rest
Would you mind answering with one of these outcomes? T = active, F = inactive

Below are worked cases with known answers.
molecule	classification
COc1cc(-c2cc(-c3nc4ccc(F)cc4[nH]3)[nH]n2)cc(OC)c1OC	F
COC(=O)C(C)NP(=O)(OCc1ccc(Cn2cnc3c(N)ncnc32)cc1)Oc1ccccc1 (stereo not drawn)	F

Query string: What is the recorded call for this molecule in the test? C#CC#CC#CC#CC#CC#CC#CC#CC[C@@H]1OC[C@H](COC(=O)O[C@@H](C(=O)O[C@H]2C[C@@]3(O)[C@@H](OC(=O)c4ccccc4)[C@@H]4[C@]5(OC(C)=O)CO[C@@H]5C[C@H](O)[C@@]4(C)C(=O)[C@H](OC(C)=O)C(=C2C)C3(C)C)[C@@H](NC(=O)c2ccccc2)c2ccccc2)O1
Result string: T

###

- Tested on: A498 renal
- measurement-notes: NCI tumour cell line growth inhibition, 48 h
observed-property: TGI

molecule	assay-target	TGI
CC(C)(C)OC(=O)N(CCCN)CCCCN	A498 renal	> 100 µM
CC(NC(=O)OC(C)(C)C)C(=O)NC1CCCC1 (stereo unspecified)	A498 renal	> 100 µM
CCCCCCC1=NOC(C(c2cc[nH]c2)N(C)[C@H](C(=O)OC)C(C)C)C1 (stereo partly specified)	A498 renal	> 100 µM
COc1cc(-c2cc(-c3nc4ccc(F)cc4[nH]3)[nH]n2)cc(OC)c1OC	A498 renal	11.9 µM
NC1(P(=O)(O)O)CCCCC1	A498 renal	> 100 µM

Could you tell me TGI for each of these molecules? They are listed below.
1. CCN(CC)C(=S)SS(=O)(=O)c1ccc(N)cc1
2. CCOC(=O)C1=C(C)N2CCOC2(C)C(C(=O)OC)C1c1cccc(Cl)c1 (stereo unspecified)

Result string:
1. > 94.2 µM
2. > 100 µM

###

- Test system: LOX IMVI melanoma
- measurement-notes: NCI tumour cell line growth inhibition, 48 h
Please note: Condition met applies when TGI is 10 µM or greater, and Condition not met applies otherwise.

See these solved cases before continuing.
compound	classification
CN1CCN(Cc2nc3cccc4c3c([n+]2[O-])-c2ccccc2-4)CC1	Condition met
O=c1[nH]nc(-c2nn(-c3ccc(Cl)cc3)cc2O)o1	Condition met
CCOC(=O)/C=C/C1OC(C)(C)OC1/C=C/C(=O)OCC (centres undefined)	Condition met
O=C(CCC1CCCCC1)NCc1ccc(C(=O)O)cc1	Condition met
Cc1oc2c(cc(O)c3ccccc32)c2cccc1-2	Condition met

Query string: Quick check, TGI >= 10 µM? COc1ccc(/C=C2\C(=O)NC(=O)c3ccccc32)cc1OC
Result string: Condition met

Query string: Reported TGI reaches at least 10 µM for COc1cc2nccc(Oc3ccc(NC(=O)C4(C(=O)Nc5ccc(F)cc5)CC4)cc3)c2cc1OC(=O)c1ccc(N)cc1 ?
Result string: Condition not met

###

For each entry below, report its GI50 value.
- System: MOLT-4 leukemia
- measurement-notes: NCI tumour cell line growth inhibition, 48 h

Some compounds with known GI50 results, for comparison:
COc1ccc(CCc2nc3cc(-c4c(C)noc4C)ccc3n2CCN2CCOCC2)cc1 34.5 µM
C=C(C)[C@@H]1CC[C@]2(C(N)=O)CC[C@]3(C)[C@H](CC[C@@H]4[C@@]5(C)C/C(=C/c6cccnc6)C(=O)C(C)(C)[C@@H]5CC[C@]43C)[C@@H]12 3.14 µM

Kindly review the next compound as well.
Query string: Query GI50 on MOLT-4 leukemia for NS(=O)(=O)c1ccc(N=Nc2c(O)[nH]c3ccc(Cl)cc23)cc1
Result string: > 25 µM

###

Hi there, I'd appreciate the recorded TGI for every entry that follows.
- System: NCI-H226 lung
- measurement-notes: NCI tumour cell line growth inhibition, 48 h

Worked cases, answers included:
compound	assay-target	observed-property	test-value
CO/C(=N\N=C\c1ccccc1F)c1ccncc1	NCI-H226 lung	TGI	> 10 µM
CC(C)NCCCNc1c2ccccc2nc2cccc([N+](=O)[O-])c12	NCI-H226 lung	TGI	0.0903 µM
CCOc1ccc(C2Oc3c(cccc3OC)C=C2[N+](=O)[O-])cc1OCC (stereo not drawn)	NCI-H226 lung	TGI	46.6 µM
COc1cc(Br)c(CC2C3=C(CCN2C(=O)C2CCC2)CC2(CC3)OCCO2)cc1O (stereo not drawn)	NCI-H226 lung	TGI	> 100 µM
COc1cc2c3c(n(CCCN)c(=O)c2cc1OC)-c1ccc(N(C)C)cc1C3=O	NCI-H226 lung	TGI	49.5 µM

For each of the compounds below, note its TGI.
1. CCCCC1(C2c3ccccc3Oc3ccccc32)C(=O)N(c2ccccc2)N(c2ccccc2)C1=O
2. COc1ccc(N(CN2C(=O)CCC2OC)C(C)=O)cc1 (stereo not drawn)
3. CCCCCCC1=NOC(C(c2cc[nH]c2)N(C)[C@H](C(=O)OC)C(C)C)C1 (stereo partly drawn)
4. COc1ccc(N)c(C(=O)CCNC(C)=O)c1

Result string:
1. > 100 µM
2. > 100 µM
3. > 100 µM
4. > 100 µM

Working through the 8 compounds below one at a time, give TGI for each.
1. COc1cc(C(=O)O[C@H]2CCC3CCC2N3C)cc(OC)c1OC (stereo partly drawn)
2. COc1ccc(/C=C/C(=O)Nc2cc(/C=C\c3cc(OC)c(OC)c(OC)c3)cc(OC)c2OC)cc1OC
3. O=C1C(c2ccccc2)=[N+]([O-])c2ccc(Cl)cc21
4. CC(C)C(NCc1c2ccccc2[n+]([O-])c2ccccc12)C(=O)O (stereo not drawn)
5. O=Cc1cn(Cc2ccccc2)c2ccccc12
6. Cc1cc(O)c(C=NC(=S)c2ccncc2)c(=O)o1
7. CN/N=C(/C=C/c1ccccc1)C(C)C
8. c1ccc2c(c1)N[C@@H]1c3[nH]c4ccccc4c3CC[C@H]21

Result string:
1: > 100 µM; 2: > 100 µM; 3: 49.9 µM; 4: > 100 µM; 5: 3.72 µM; 6: > 100 µM; 7: > 100 µM; 8: 31.6 µM
